Experimental System: Phosphatidylinositol 4,5-bisphosphate 3-kinase catalytic subunit beta isoform (Homo sapiens, UniProt P42338)
Sequence (P42338 whole entry, canonical isoform): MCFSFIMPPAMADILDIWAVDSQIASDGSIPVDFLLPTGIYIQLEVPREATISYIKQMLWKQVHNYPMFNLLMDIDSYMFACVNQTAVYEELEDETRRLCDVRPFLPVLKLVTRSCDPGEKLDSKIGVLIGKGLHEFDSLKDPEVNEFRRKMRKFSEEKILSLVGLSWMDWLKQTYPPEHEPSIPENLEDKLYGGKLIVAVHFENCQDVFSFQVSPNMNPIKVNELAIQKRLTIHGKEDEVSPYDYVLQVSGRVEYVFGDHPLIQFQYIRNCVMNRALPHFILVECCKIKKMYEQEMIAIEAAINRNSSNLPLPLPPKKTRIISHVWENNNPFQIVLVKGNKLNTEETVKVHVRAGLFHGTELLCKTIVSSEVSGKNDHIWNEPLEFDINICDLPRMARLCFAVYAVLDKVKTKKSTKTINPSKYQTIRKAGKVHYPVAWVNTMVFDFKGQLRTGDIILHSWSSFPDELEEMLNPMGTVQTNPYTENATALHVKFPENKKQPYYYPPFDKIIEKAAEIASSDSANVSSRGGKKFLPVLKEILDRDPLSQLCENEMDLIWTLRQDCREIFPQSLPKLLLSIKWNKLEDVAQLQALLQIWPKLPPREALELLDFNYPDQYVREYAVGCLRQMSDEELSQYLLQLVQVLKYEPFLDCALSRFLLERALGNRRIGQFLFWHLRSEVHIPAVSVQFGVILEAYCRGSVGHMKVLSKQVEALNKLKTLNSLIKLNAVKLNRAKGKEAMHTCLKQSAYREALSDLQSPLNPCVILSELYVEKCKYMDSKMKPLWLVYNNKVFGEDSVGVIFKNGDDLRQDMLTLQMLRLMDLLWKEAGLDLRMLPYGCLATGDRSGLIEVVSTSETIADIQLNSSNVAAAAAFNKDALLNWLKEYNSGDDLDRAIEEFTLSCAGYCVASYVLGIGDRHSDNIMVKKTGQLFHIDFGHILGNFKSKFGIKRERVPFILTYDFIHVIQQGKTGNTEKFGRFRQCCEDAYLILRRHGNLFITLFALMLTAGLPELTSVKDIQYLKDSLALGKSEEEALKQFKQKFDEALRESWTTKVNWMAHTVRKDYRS
Protocol Details: Inhibition of PI3Kbeta (unknown origin) using PIP2 as substrate preincubated for 15 mins followed by substrate addition measured after 60 mins in presence of ATP by HTRF method
Assay Metric: IC50 (µM)
Report only the number, with the unit µM understood.

Looking up Cc1nncn1C1CCN(Cc2cc3nc(-c4cccc5[nH]ncc45)nc(N4CCOCC4)c3s2)CC1 , I found its IC50 recorded as 1

IC50 for FC(F)(F)c1nncn1C1CCN(Cc2cc3nc(-c4cccc5[nH]ncc45)nc(N4CCOCC4)c3s2)CC1 is 1.26

get_value(item= FC(F)(F)c1nnc2n1[C@H]1CCN(Cc3cc4nc(-c5cccc6[nH]ccc56)nc(N5CCOCC5)c4s3)C[C@H]1CC2 (relative stereo) , readout=IC50) returns 0.1
